molecular target: Luciferin 4-monooxygenase (Photinus pyralis); test: firefly luciferase enzyme inhibitors, primary screen, biochemical, luminescence, purified enzyme, 2006 set (AID 1141); conditions: SteadyGlo luminescence, 30 min, higher = more signal, called active from +8 up or from −8 down;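 note: cell-free assay with purified firefly luciferase at 100 ng per well in PBS; test concentration not given here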
So I've got a bunch of compounds here, and I need their z-score values.
Numbers only.

O=C/C=C/c1ccccc1Cl : -2.21

For every listed record, write down its z-score.
1. C=C(COC)/C(=C/C[C@@H](OC(=O)c1ccncc1)c1ccc(OCCO)cc1)c1cc(C(=O)OC)ccc1OC
2. COCCCNC(=O)[C@@]1(c2ccc([N+](=O)[O-])cc2)CC(=O)N(C2CCCCC2)[C@@H]1c1ccc(CO)cc1
3. Cc1ccc(S[C@]2(C(=O)O)CC(=O)N(Cc3cc(C(F)(F)F)cc(C(F)(F)F)c3)[C@@H]2c2ccc(CO)cc2I)cc1

Outgoing:
[-2.22, -0.501, -1.3]

Hey, can you go through the list below and give me z-score for every item?
1. CCCCCCc1nc(C2CC2)c(C)c2c1[Si](C(C)C)(C(C)C)OC2
2. CC(C)[Si]1(C(C)C)O[C@@H](c2ccccc2)c2cc(C3CC3)nc(-c3ccc(Oc4ccccc4)cc3)c21

Outgoing:
-0.441
-0.626

###

assay: Plasmodium falciparum growth inhibition, primary screen, strain 3D7, DAPI fluorescence, 100 nL (AID 1184);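 note: parasites grown inside human red blood cells in medium with human serum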; details: P. falciparum 3D7 growth, 3 d, higher = more signal
Assignment: determine reported z-score for the given compounds.

Observe how each entry below is paired with its result.
COc1cc(CO)cc(I)c1O[C@H]1C=C(C(=O)NCCO)C[C@@H](NCCc2c[nH]c3ccccc23)[C@@H]1O : -3
COc1ccc([Si](C)(C)[C@@H]2[C@@H](CCO)O[C@]3(C(=O)N(Cc4ccc(NC(=O)[C@H](C)O)cc4)c4ccccc43)[C@H]2C)cc1 : -2.79
C[C@]1(C(=O)NCCN2CCOCC2)c2ccccc2C(=O)N(Cc2ccccc2)[C@H]1c1ccc(CO)cc1 : -1.22
O=C1O[C@H](c2ccccc2)[C@H](c2ccccc2)N2[C@H]1[C@@H](C(=O)NC[C@H](O)c1ccccc1)[C@]1(C(=O)Nc3ccc(C#CC4=CCCCC4)cc31)[C@H]2c1ccc(OCCO)cc1 : -0.435
C=CCC(OC(C)=O)[C@@H]1[C@@H](N(Cc2cccc3ccccc23)C(=O)Cc2ccc(F)cc2)c2cc(OCCCO)ccc2N1C(=O)Cc1ccc2ccccc2c1 (some centres undefined) : -1.17
[N-]=[N+]=NCc1ccccc1C[C@@]1(C(=O)N2CCOCC2)N=C(c2ccc(OCCCO)cc2)O[C@@H]1c1ccccc1N=[N+]=[N-] : -1.98
CO[C@H]1COC(=O)[C@H](CCSC)NC(=O)CC=C[C@@H](C)COC(=O)[C@@H](OCc2ccccc2)C=C[C@@H]1C : -0.115
Cc1ccc(S(=O)(=O)N[C@H]2COC(=O)CC=C[C@H](C)COC(=O)N[C@@H](C)C(=O)CC=C[C@@H]2C)cc1 : -1.23
C=C(/C(=C/C[C@@H](OC(=O)c1ccncc1)c1ccc(CO)o1)c1cnc2ccccc2c1)C(C)C : -0.599
COc1cccc([C@@H]2[C@@H](C)CC[C@H]3C(=O)N(C)[C@@H](C(C)C)C(=O)N23)c1 : 0.451

Required: z-score, one value per compound below.
1. O=C(CS)NCCCCCCNC(=O)[C@@H]1C[C@@H]2C(=O)N[C@@H](Cc3ccccc3)C(=O)N2[C@@H]1c1ccc(O)cc1
2. Cc1ccc(S[C@]2(C(=O)O)CC(=O)N(Cc3ccccc3)[C@@H]2c2ccc(CO)cc2)cc1
3. CO[C@H]1COC(=O)[C@H](C)COC(=O)[C@H](Cc2ccccc2)NC(=O)CC=C[C@H]1C
4. CO[C@H]1O[C@H](CO)[C@@H](OC(=O)Nc2ccc(Oc3ccccc3)cc2)[C@H](OC(=O)Nc2ccccc2-c2ccccc2)[C@H]1OC(=O)Nc1ccccc1-c1ccccc1
5. Cc1ccccc1C(O)C1C=CC2C(=O)N(c3ccccc3)C(=O)C2N1Nc1ccc(C#N)cc1 (centres undefined)
6. Cc1ccc(N2C(=O)c3ccccc3[C@@H](C(=O)NCC(F)(F)F)[C@@H]2c2ccc(CO)cc2)nc1
7. C=C(COC)/C(=C/C[C@@H](OC(=O)c1ccncc1)c1ccc(OCCO)cc1)c1cc(C(=O)OC)ccc1OC

Outgoing:
1: -1.02; 2: -0.254; 3: 0.724; 4: -2.09; 5: -0.494; 6: -0.0188; 7: -2.98

Look at each compound and report its z-score.
1. CCCC/C=C/[C@H]([C@@H](O)Cc1ccccc1)N(CC#Cc1ccccc1)Cc1ccccc1Br
2. CCCCCCc1nc(C2CC2)c(C)c2c1[Si](C(C)C)(C(C)C)OC2
3. CC(C)N1CC=CC23O[C@@H]4/C=C\CCCOC(=O)C4[C@H]2C(=O)N(CCO)[C@@H]3C1=O (some centres undefined)
4. CO[C@@H]1COC(=O)[C@H](COCc2ccccc2)NC(=O)CC=C[C@@H](C)[C@H](OC)COC(=O)[C@H](COCc2ccccc2)NC(=O)CC=C[C@H]1C
5. CO[C@@H]1COC(=O)CC=C[C@H](C)COC(=O)[C@H](Cc2ccccc2)NC(=O)CC=C[C@H]1C
6. COc1ccc(CCN2C(=O)[C@@]3(c4ccc([N+](=O)[O-])cc4)CC(=O)N(CC45CC6CC(CC(C6)C4)C5)[C@@H]3c3ccc(CO)cc32)cc1
7. COc1ccc(CCNC(=O)[C@@]2(c3ccc([N+](=O)[O-])cc3)CC(=O)N(C(C)C)[C@@H]2c2ccc(CO)cc2)cc1
8. O=C(O)[C@@H]1Cc2c([nH]c3ccccc23)[C@@H](c2ccccc2)N1

Outgoing:
[-0.972, -2.41, -0.348, -0.989, 0.684, -1.07, -0.303, -0.421]

Please report z-score for every entry that follows.
1. O=C1C2C=CC(C(O)c3ccccc3)N(n3cnnc3)C2C(=O)N1Cc1ccccc1 (centres undefined)
2. CC(C)[Si](OCC[C@H]1O[C@]2(C(=O)N(Cc3ccccc3)c3ccccc32)[C@@H](C)[C@@H]1[Si](C)(C)O)(C(C)C)C(C)C
3. COCCOC(=O)N1C(=O)[C@@]2(c3ccccc31)[C@H](C(=O)N1CCc3cc(OC)c(OC)cc3C1)[C@H]1C(=O)O[C@H](c3ccccc3)[C@H](c3ccccc3)N1[C@@H]2c1ccccc1OCCO

Outgoing:
0.454
-1.94
-1.9

Incoming: What z-score value was documented for this compound, CC(=O)Nc1ccc([C@H]2[C@H](C)CC[C@H]3C(=O)N4[C@@H](CC[C@@H](C)[C@@H]4c4ccc(NC(C)=O)cc4)C(=O)N32)cc1 ?
Outgoing: 0.179

###

For each entry below, report its composite z-score value.
test: small-molecule microarray binders of probe aCHRDL2, primary screen, biochemical, biotinylated probe, 635/667 nm fluorescence (AID 1100); conditions: higher = more signal

These solved cases illustrate the format of a correct answer.
C=CCNC(=O)[C@H]1[C@@H]2C(=O)O[C@@H](c3ccccc3)[C@@H](c3ccccc3)N2[C@@H](c2ccccc2OCCO)[C@]12C(=O)N(C(=O)OCCOC)c1ccc(C#CCNC(N)=O)cc12 : 0.802
C=C(CCCC)/C(=C/C[C@H](OC(=O)c1ccncc1)c1cccc(OCCO)c1)c1cc(C(=O)OC)ccc1OC : -0.0107
CSCC[C@@H]1NC(=O)CC=C[C@@H](C)COC(=O)[C@H](CCSC)NC(=O)CC=C[C@@H](C)COC1=O : -0.607

Give composite z-score for each of the items listed below.
1. CCOC(=O)C1=CC[C@@H](c2ccccc2)N(S(=O)(=O)c2ccc(C)cc2)[C@H]1C
2. CC(=O)NCCCC[C@@H]1NC(=O)[C@@H]2C[C@H](C(=O)NCCCCCNC(=O)CS)[C@H](c3ccc(O)cc3)N2C1=O
3. CCN1C(C)=C(C(=O)OC)[C@@H](c2ccccc2)N2C(=O)[C@@]3(C(=O)OC)O[C@@]12[C@@H]1C(=O)N(c2ccccc2)C(=O)[C@@H]13
4. CCCNC(=O)[C@@H]1c2ccccc2C(=O)N(C2CCCCC2)[C@H]1c1ccc(CO)cc1
5. O=C1OCCC=C[C@H]2OC34C=CCN(Cc5ccccc5)C(=O)[C@H]3N(CCO)C(=O)[C@@H]4C12 (stereo not given in full)
6. COc1ccc([Si](C)(C)[C@H]2[C@H](CC(=O)N3Cc4ccccc4C[C@H]3CO)O[C@@]3(C(=O)N(Cc4cccc(N5CCOC5=O)c4)c4ccccc43)[C@@H]2C)cc1

Outgoing:
1: 0.567; 2: 0.292; 3: -0.253; 4: 0.533; 5: 0.0184; 6: 0.0765

###

tested on: Lefty1; assay: Lefty1 binders on small-molecule microarrays, primary screen, biochemical, small-molecule microarray, 635/667 nm fluorescence (AID 1139); conditions: small-molecule microarray binding, fluorescence 635/667; higher = more signal
measured parameter: composite z-score
Give bare numbers.

Here is how some compounds turned out for composite z-score.
CC(C)(C)OC(=O)CC[C@@]1(C(=O)NCc2ccccc2)N=C(c2ccc(OCCCO)cc2)O[C@@H]1c1ccccc1 : 0.353
O=C1OCCC/C=C\[C@H]2OC34C=CCN(CCN5CCOCC5)C(=O)[C@H]3N(CCCCCO)C(=O)[C@@H]4C12 (some centres undefined) : -0.84
CCOC(=O)C[C@H]1[C@H](OC(=O)Cc2ccc3c(c2)OCO3)[C@@H](NC(=O)c2ccc3ccccc3c2)c2cc(OCCCO)ccc2N1C(=O)Cc1ccc(OC)cc1 : 0.55

For the next question, use this compound.
Incoming: Please report the recorded composite z-score for COC(=O)C1=C(C)N(Cc2ccccc2)c2c(C(=O)OC)c(C(=O)OC)c(C(=O)OC)c(=O)n2[C@@H]1c1ccccc1 .
Outgoing: 0.27
